Value source: ChEMBL document CHEMBL1201862

Entries annotated with measured GI50
- Tested on: SK-MEL-2
- method-summary: NCI tumour cell line growth inhibition, 48 h
Active and inactive are the calls of the source. Cut-off read from the data, not from the text of the source: active = GI50 up to about 1.1 µM and inactive = higher.

{"columns": ["molecule", "GI50"],
 "data": [
  ["COC(=O)C(CCC1(C)OCCO1)C(C)=O (stereo unspecified)", "> 100 µM (inactive)"],
  ["COC(=O)C1=C(C(=O)OC)C2(C3C(SC)=CC(C)(C)CC3S1)N(Cc1ccccc1)CCN2Cc1ccccc1 (stereo unspecified)", "> 100 µM (inactive)"],
  ["CCOC(=O)/C=C(/C)Nc1nc2c(c(C(=O)OC)c1C#N)CCCC2", "> 100 µM (inactive)"],
  ["NNC(=O)CCC(=O)Nc1cc(Cl)c(Cl)cc1Cl", "> 100 µM (inactive)"],
  ["CC1(C)C2CC(=O)C1(C)C(O)C2Br (stereo unspecified)", "> 100 µM (inactive)"]
]}

Next item in the queue.
QUERY: Would you mind telling me what GI50 value was observed for Oc1c(Cl)c(Cl)c(O)c(CCNc2ccc3ncccc3c2)c1Cl ?
RESULT: 6.32 µM (inactive)

====

- System: 786-0
- method-summary: NCI tumour cell line growth inhibition, 48 h
Active and inactive are the calls of the source. Cut-off read from the data, not from the text of the source: active = GI50 up to about 1.1 µM and inactive = higher.
Entries annotated with measured GI50

Some entries whose results are on file:
{"columns": ["molecule", "target-or-test-system", "readout-label", "experimental-value"],
 "data": [
  ["CSc1cc(Cl)c(C(=O)Nc2ccccc2)cc1S(=O)(=O)n1ccnc1O", "786-0", "GI50", "> 100 µM (inactive)"],
  ["FC(F)(Sc1ccccn1)c1nc2ccccc2o1", "786-0", "GI50", "> 100 µM (inactive)"],
  ["O=C1c2ccccc2C(=O)C12CCc1ccccc12", "786-0", "GI50", "> 100 µM (inactive)"],
  ["Nc1nc(Cl)cc(NCCCCCCNc2cc(Cl)nc(N)n2)n1", "786-0", "GI50", "> 100 µM (inactive)"],
  ["CCOC(=O)C12C3CCC1C2C(=O)C3 (centres undefined)", "786-0", "GI50", "> 100 µM (inactive)"],
  ["CCOC(=O)C1=CC(C)(C(=O)OCC)Nc2c(nc(OC)n(C)c2=O)N1 (centres undefined)", "786-0", "GI50", "> 10 µM (inactive)"]
]}

QUERY: Would you mind telling me what GI50 value was observed for Cc1ccccc1CN1CC=c2ccccc2=N1 ?
RESULT: > 100 µM (inactive)

QUERY: Would you mind telling me what GI50 value was observed for Brc1ccccc1/C=C\C1(c2ccccc2)OCCO1 ?
RESULT: 11.6 µM (inactive)

QUERY: Would you mind telling me what GI50 value was observed for C/C(CCc1ccccc1)=N\NC(N)=S ?
RESULT: > 100 µM (inactive)

QUERY: Would you mind telling me what GI50 value was observed for O=C(Nc1c(O)[nH]c(=S)[nH]c1=O)c1ccccn1 ?
RESULT: > 100 µM (inactive)

QUERY: Would you mind telling me what GI50 value was observed for [O-][S+](Nc1ccccc1)c1ccccc1Oc1ccccc1 (centres undefined) ?
RESULT: 24.7 µM (inactive)

QUERY: Would you mind telling me what GI50 value was observed for O=[N+]([O-])c1ccc2c(c1)Sc1ccccc1N2CCCCCl ?
RESULT: > 100 µM (inactive)

QUERY: Would you mind telling me what GI50 value was observed for O=C(Nc1sccc1S(=O)(=O)c1ccccc1)c1ccccc1 ?
RESULT: > 100 µM (inactive)

QUERY: Would you mind telling me what GI50 value was observed for COc1ccc(SCc2cc(OC)ccc2OC)cc1 ?
RESULT: > 85.5 µM (inactive)

QUERY: Would you mind telling me what GI50 value was observed for COC(=O)Cc1ccc2c(cnn2-c2ccccc2)c1OC ?
RESULT: > 10 µM (inactive)

QUERY: Would you mind telling me what GI50 value was observed for N#COc1ccc(Oc2ccccc2)cc1 ?
RESULT: 34.6 µM (inactive)

QUERY: Would you mind telling me what GI50 value was observed for O=C1C(c2ccc(Cl)cc2)=[N+]([O-])c2ccccc21 ?
RESULT: 16.9 µM (inactive)

QUERY: Would you mind telling me what GI50 value was observed for CN(C)c1ccc2c(SCC(=O)OCC(=O)[C@@]3(O)CC[C@H]4[C@@H]5CCC6=CC(=O)C=C[C@]6(C)[C@H]5C(=O)C[C@@]43C)c3ccc(N(C)C)cc3nc2c1 ?
RESULT: 4.16 µM (inactive)

QUERY: Would you mind telling me what GI50 value was observed for CCOc1cc(C(=O)O)c2c(ccc3ccc(OC)c(OC)c32)c1OC ?
RESULT: > 100 µM (inactive)

QUERY: Would you mind telling me what GI50 value was observed for COC(=O)[C@]1(NC(=O)c2ccccc2)C[C@H]1C=O ?
RESULT: > 100 µM (inactive)

====

- System: HL-60
- method-summary: NCI tumour cell line growth inhibition, 48 h
Active and inactive are the calls of the source. Rule as the data show it: active = GI50 up to about 1.1 µM and inactive = higher.
Answer with one of the outcomes given here: Yes for active, No for inactive

See these solved cases before continuing.
{"columns": ["compound", "target-or-test-system", "label"],
 "data": [
  ["O=C(c1c(O)cc(O)cc1O)C1Cc2ccccc21 (configuration not stated)", "HL-60", "No"],
  ["OC1CCCCCCCCCCC1[S+]1CCCC1.O[B-](F)(F)F (configuration not stated)", "HL-60", "No"],
  ["COc1ccc(SCc2cc(OC)ccc2OC)cc1", "HL-60", "No"],
  ["CCOC(=O)C1C(=S)NC(=O)C1C#N (configuration not stated)", "HL-60", "No"],
  ["COc1cc(COC(=O)N2CCCCC2C(=O)O)c([N+](=O)[O-])cc1OC (configuration not stated)", "HL-60", "No"],
  ["COC(=O)/C=C1/CCC(C)(C(=O)NS(=O)(=O)c2ccc(C)cc2)C1(C)C (configuration not stated)", "HL-60", "No"]
]}

QUERY: Hi team, can someone confirm the assay call for CC(C)/C(Cl)=N\OC(=O)Nc1ccc(F)c([N+](=O)[O-])c1 ?
RESULT: Yes

QUERY: Hi team, can someone confirm the assay call for Cc1cc(N)ccc1C=O ?
RESULT: No

QUERY: Hi team, can someone confirm the assay call for O=C(Nc1cccc(Cl)c1)Nn1cnnc1 ?
RESULT: No

QUERY: Hi team, can someone confirm the assay call for CC(C)CCn1nc(N)c2nc3ccccc3nc21 ?
RESULT: No

QUERY: Hi team, can someone confirm the assay call for Oc1cc(-c2ccccc2)nc2cc3c(cc12)OCO3 ?
RESULT: No

====

- Tested on: A498
- method-summary: NCI tumour cell line growth inhibition, 48 h
Calls of active or inactive are those of the source. No stated cut-off is given here; in the data, active = GI50 up to about 1.1 µM and inactive = higher.
readout-label: GI50

{"columns": ["molecule", "target-or-test-system", "experimental-value"],
 "data": [
  ["CC(=O)OC[C@@]1(C)[C@@H]2[C@@H]3[C@@]4(CO[C@]3(C)C(=O)[C@@]3(O)C[C@H](C)[C@H](OC(C)=O)[C@@H]3[C@H]4OC(C)=O)[C@H](OC(=O)c3ccccc3)C[C@@H]21", "A498", "> 100 µM (inactive)"]
]}

QUERY: Would you mind telling me what GI50 value was observed for COC(=O)/C(C#N)=C(\Nc1ccccc1)N1CCCCC1 ?
RESULT: > 100 µM (inactive)

QUERY: Would you mind telling me what GI50 value was observed for COC(=O)C1C(=O)C=CN([C@H](C)c2ccccc2)[C@@H]1Cc1ccc(OC)c(OCc2ccccc2)c1I (stereo partly drawn) ?
RESULT: 14.5 µM (inactive)

====

- Test system: CAKI-1
- method-summary: NCI tumour cell line growth inhibition, 48 h
Calls of active or inactive are those of the source. No stated cut-off is given here; in the data, active = GI50 up to about 1.1 µM and inactive = higher.
Entries annotated with measured GI50

Some entries whose results are on file:
{"columns": ["compound", "GI50"],
 "data": [
  ["CC1CCC2CC(=O)OC([C@@H]3C(=O)O[C@@H](C4=CCCC4)C4C(C)CCC43)C12 (stereo not given in full)", "72.6 µM (inactive)"],
  ["CCCCCC(=O)n1[nH]c(=O)n(-c2ccc(OC)cc2)c1=O", "> 100 µM (inactive)"],
  ["CSc1ncc2c(C#N)c3n(C)c4ccccc4n3c(=O)c2n1", "> 100 µM (inactive)"]
]}

QUERY: Would you mind telling me what GI50 value was observed for CCCCCCCCCCCC(=O)C1=C(O)CC(O)CC1=O (stereo not given) ?
RESULT: > 100 µM (inactive)

QUERY: Would you mind telling me what GI50 value was observed for Clc1ccc(NCc2nnc(CCCCCCCCc3nnc(CNc4ccc(Cl)cc4)o3)o2)cc1 ?
RESULT: > 100 µM (inactive)

====

- Tested on: Malme-3M
- method-summary: NCI tumour cell line growth inhibition, 48 h
The source made the active and inactive calls. Cut-off read from the data, not from the text of the source: active = GI50 up to about 1.1 µM and inactive = higher.
Answer with one of the outcomes given here: yes = active, no = inactive

See these solved cases before continuing.
{"columns": ["molecule", "label"],
 "data": [
  ["COC(=O)C1=C(C(=O)OC)C2(C3C(SC)=CC(C)(C)CC3S1)N(Cc1ccccc1)CCN2Cc1ccccc1 (centres undefined)", "no"],
  ["COc1ccc(SCc2cc(OC)ccc2OC)cc1", "no"]
]}

QUERY: Hi team, can someone confirm the assay call for C[C@@H]1C[C@@H](O)[C@]2(O)O[C@@H]3C[C@@]4(C=O)[C@@H](CC[C@@H]5[C@@H]4CC[C@]4(C)[C@@H](C6=CC(=O)OC6)CC[C@]54O)C[C@H]3O[C@@H]2O1 ?
RESULT: yes

QUERY: Hi team, can someone confirm the assay call for COC(=O)C1C(=O)C=CN([C@H](C)c2ccccc2)[C@@H]1Cc1ccc(OC)c(OCc2ccccc2)c1I (some centres undefined) ?
RESULT: no
